Test system: 377384-186-R-J1-PDC complex spheroid viability;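 note: spheroids exposed to compounds for seven days before readout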
EXPERIMENTAL DETAILS: Anticancer human tumor 377384-186-R-J1-PDC patient-derived pancreatic carcinoma cell line growth inhibition [RAS]
CONDITION SUMMARY: second compound 0.00949 µM; first compound 0.03 µM; active compounds read low
QUANTITY NAME: viability, T/C (%)
// return numeric value only (unit: %, not printed)

CCc1c2c(nc3ccc(O)cc13)-c1cc3c(c(=O)n1C2)COC(=O)[C@]3(O)CC + CCn1c(-c2cc(N3CCN(C)CC3)cnc2C(C)OC)c2c3cc(ccc31)-c1csc(n1)CC(NC(=O)C1CC1C)C(=O)N1CCCC(N1)C(=O)OCC(C)(C)C2    2.11
CC1(C)CCC(Nc2ncc(C(F)(F)F)c(-c3c[nH]c4c(P(C)(C)=O)c(C#N)ccc34)n2)CN1 (centres undefined) + CCn1c(-c2cc(N3CCN(C)CC3)cnc2C(C)OC)c2c3cc(ccc31)-c1csc(n1)CC(NC(=O)C1CC1C)C(=O)N1CCCC(N1)C(=O)OCC(C)(C)C2    5.23
CCc1c2c(nc3ccc(O)cc13)-c1cc3c(c(=O)n1C2)COC(=O)[C@]3(O)CC + CCn1c(-c2cccnc2C(C)OC)c2c3cc(ccc31)N1CCOC(CC(NC(=O)C(C(C)C)N(C)C(=O)C3(F)CCN(C(=O)C#CC(C)(C)N(C)C)CC3)C(=O)N3CCCC(N3)C(=O)OCC(C)(C)C2)C1    5.59

Let's switch to this compound now.
Measured viability, T/C, CC1(C)CCC(Nc2ncc(C(F)(F)F)c(-c3c[nH]c4c(P(C)(C)=O)c(C#N)ccc34)n2)CN1 (centres undefined) + CCn1c(-c2cccnc2C(C)OC)c2c3cc(ccc31)N1CCOC(CC(NC(=O)C(C(C)C)N(C)C(=O)C3(F)CCN(C(=O)C#CC(C)(C)N(C)C)CC3)C(=O)N3CCCC(N3)C(=O)OCC(C)(C)C2)C1 : 23.5

Every entry's value here was drawn from PubChem BioAssay AID2060903.
